The origin of these recorded values is patent US20140087995A1.

Target: T1, rat calcitonin receptor (rat, UniProt P32214 25-516)
T1 construct: whole, on cells; membranes of transiently transfected BHK tk'ts 13 cells (Assay VIII); also called rCTR; rat calcitonin (a) receptor
T1 sequence (looked up): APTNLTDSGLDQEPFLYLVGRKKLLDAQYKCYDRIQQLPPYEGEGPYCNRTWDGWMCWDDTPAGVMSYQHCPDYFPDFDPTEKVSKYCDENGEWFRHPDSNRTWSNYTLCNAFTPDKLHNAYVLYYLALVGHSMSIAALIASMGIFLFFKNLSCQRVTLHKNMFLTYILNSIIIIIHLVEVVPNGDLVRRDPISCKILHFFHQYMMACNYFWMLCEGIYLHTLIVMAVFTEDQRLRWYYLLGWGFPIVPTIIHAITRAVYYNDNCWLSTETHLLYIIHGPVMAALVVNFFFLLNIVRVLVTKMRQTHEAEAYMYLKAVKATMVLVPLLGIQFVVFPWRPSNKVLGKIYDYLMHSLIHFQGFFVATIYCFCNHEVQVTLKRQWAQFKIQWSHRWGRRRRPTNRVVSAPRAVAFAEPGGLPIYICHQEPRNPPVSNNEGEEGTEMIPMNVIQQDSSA
Test: SPA competition with 125I-calcitonin, membranes of BHK cells with rat calcitonin receptor (Assay VIII)
Numbered stars: 1 amine (or outer) side, 2 acyl side, 3 side chain; on linkers, the order of the positions; unused ones are H or OH. Bridge positions count the residues as written; N and C are the ends. Side chains are listed from the residue outwards. Ends that are not written are not given here. * marks the point of attachment. C20 diacid = O=C(O)CCCCCCCCCCCCCCCCCCC(=O)*; γGlu = O=C(O)[C@H](CCC(=O)[*:2])N[*:1]
Assignment: determine reported pIC50 for the given binders.
The read-out pIC50 is expressed as -log10 of concentration in moles per litre.

Could you please provide reported pIC50 for {C20 diacid-γGlu}-KCNTATCATQRLAEFLRHSSPNFGAIPSSTNVGSRTY-NH2 (disulfide 2-7 (inferred), analogue of human amylin; also called compound 16) ? Thanks! 7.26

Read off the recorded pIC50 for K([γGlu-γGlu-C20 diacid])CNTATCATQRLADFLRHSSNPFGAPLSSTNVGSDTY-NH2 (disulfide 2-7 (inferred), analogue of human amylin; also called compound 3) 7.78

Write down pIC50 measured for item {C20 diacid-γGlu}-KCNTATCATQRLAEFLRHSSPNFGAIPSSTNVGHNTY-NH2 (disulfide 2-7 (inferred), analogue of human amylin; also called compound 17) 7.01

Check the records and state pIC50 for K([γGlu-γGlu-C20 diacid])CNTATCATQRLADFLRHSSPNFGAPLSSTNVGSDTY-NH2 (disulfide 2-7 (inferred), analogue of human amylin; also called compound 1) 6.87

For the binder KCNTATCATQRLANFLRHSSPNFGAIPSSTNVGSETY (C20 diacid-gGlu on the alpha amino group of the N-terminal residue (Lys 1); disulfide bridge between the two Cys residues; C-terminal amide, analogue of human amylin; also called compound 23) [N^α1-[(4S)-4-carboxy-4-(19-carboxynonadecanoylamino)butanoyl]-[Arg17,Pro21,Pro27,Glu35]-h-amylin] , give its measured pIC50 value. 7.10
